Tested on: A-431
Measurement Notes: Cell cycle arrest in A431 cells by accumulation at G2/M phase cell at 0.1uM
Type: functional
Condition Details: Homo sapiens
Criterion: inhibition at 0.1 µM meeting or surpassing 40%. Met: y. Not met: n.

Query: Would you say COc1cc(Nc2ncccc2-c2nc(Nc3ccc(OC)cc3OC)n[nH]2)cc(OC)c1 shows inhibition at 0.1 µM at minimum 40%?
Result: n

Query: Would you say Fc1cccc(Oc2ncccc2-c2n[nH]c(Nc3ccc4c(c3)OCO4)n2)c1 shows inhibition at 0.1 µM at minimum 40%?
Result: n

Query: Would you say COc1cc(Nc2ccncc2-c2n[nH]c(Nc3ccc4c(c3)OCO4)n2)cc(OC)c1 shows inhibition at 0.1 µM at minimum 40%?
Result: y

Query: Would you say COc1cc2c(c(OC)c1OC)-c1ccc(OC)c(=O)cc1[C@@H](NC(C)=O)CC2 shows inhibition at 0.1 µM at minimum 40%?
Result: y

Query: Would you say COc1cc(OC)cc(Oc2ncccc2-c2n[nH]c(Nc3ccc(N(C)C)cc3)n2)c1 shows inhibition at 0.1 µM at minimum 40%?
Result: y

Query: Would you say COc1cc(Nc2ncccc2-c2nc(Nc3cc(OC)ccc3OC)n[nH]2)cc(OC)c1 shows inhibition at 0.1 µM at minimum 40%?
Result: n

Query: Would you say COc1cccc(Nc2n[nH]c(-c3cccnc3Nc3cc(OC)cc(OC)c3)n2)c1 shows inhibition at 0.1 µM at minimum 40%?
Result: y

Query: Would you say COc1ccc(CNc2n[nH]c(-c3cccnc3Nc3cc(OC)cc(OC)c3)n2)cc1 shows inhibition at 0.1 µM at minimum 40%?
Result: n

Query: Would you say COc1cccc(CNc2n[nH]c(-c3cccnc3Nc3cc(OC)cc(OC)c3)n2)c1 shows inhibition at 0.1 µM at minimum 40%?
Result: y

Query: Would you say COc1ccc(CNc2n[nH]c(-c3cccnc3Oc3cc(OC)cc(OC)c3)n2)cc1 shows inhibition at 0.1 µM at minimum 40%?
Result: n

Query: Would you say COc1cc(Nc2n[nH]c(-c3cccnc3Oc3cc(OC)cc(OC)c3)n2)cc(OC)c1 shows inhibition at 0.1 µM at minimum 40%?
Result: y

Query: Would you say Fc1ccc(CNc2ncccc2-c2n[nH]c(Nc3ccc4c(c3)OCO4)n2)cc1F shows inhibition at 0.1 µM at minimum 40%?
Result: n

Query: Would you say c1ccc(Oc2ncccc2-c2nc(Nc3ccc4c(c3)OCO4)n[nH]2)nc1 shows inhibition at 0.1 µM at minimum 40%?
Result: n

Query: Would you say COc1cc(O)cc(Oc2ncccc2-c2n[nH]c(Nc3ccc4c(c3)OCO4)n2)c1 shows inhibition at 0.1 µM at minimum 40%?
Result: y

Query: Would you say COc1cc(Nc2ccncc2-c2n[nH]c(Nc3ccc4c(c3)OCCO4)n2)cc(OC)c1 shows inhibition at 0.1 µM at minimum 40%?
Result: y

Query: Would you say COc1cc(OC)cc(Oc2ccncc2-c2n[nH]c(Nc3ccc4c(c3)OCCO4)n2)c1 shows inhibition at 0.1 µM at minimum 40%?
Result: y

Query: Would you say COc1cc(OC)cc(Oc2ncccc2-c2n[nH]c(Nc3cccc(O)c3)n2)c1 shows inhibition at 0.1 µM at minimum 40%?
Result: y

Query: Would you say COc1cc(Nc2ncncc2-c2n[nH]c(Nc3ccc4c(c3)OCCO4)n2)cc(OC)c1 shows inhibition at 0.1 µM at minimum 40%?
Result: y

Query: Would you say COc1ccc(CNc2ncccc2-c2n[nH]c(Nc3ccc4c(c3)OCCO4)n2)cc1 shows inhibition at 0.1 µM at minimum 40%?
Result: n

Query: Would you say c1cnc(NCc2ccncc2)c(-c2n[nH]c(Nc3ccc4c(c3)OCO4)n2)c1 shows inhibition at 0.1 µM at minimum 40%?
Result: y

Query: Would you say Fc1cc(F)cc(Oc2ncccc2-c2n[nH]c(Nc3ccc4c(c3)OCO4)n2)c1 shows inhibition at 0.1 µM at minimum 40%?
Result: n

Query: Would you say COc1cc(Nc2nccnc2-c2n[nH]c(Nc3ccc4c(c3)OCO4)n2)cc(OC)c1 shows inhibition at 0.1 µM at minimum 40%?
Result: y

Query: Would you say COc1cc(Nc2ncccc2-c2n[nH]c(Nc3ccc4c(c3)OCO4)n2)cc(OC)c1 shows inhibition at 0.1 µM at minimum 40%?
Result: y

Query: Would you say COc1cccc(Nc2n[nH]c(-c3cccnc3Oc3cc(OC)cc(OC)c3)n2)c1 shows inhibition at 0.1 µM at minimum 40%?
Result: y

Query: Would you say COc1cc(OC)cc(Oc2ncccc2-c2n[nH]c(Nc3cc(F)cc(F)c3)n2)c1 shows inhibition at 0.1 µM at minimum 40%?
Result: n

Query: Would you say Fc1ccc(CNc2ncccc2-c2n[nH]c(Nc3ccc4c(c3)OCCO4)n2)cc1F shows inhibition at 0.1 µM at minimum 40%?
Result: n

Query: Would you say Cc1cc(C)cc(Oc2ncccc2-c2n[nH]c(Nc3ccc4c(c3)OCO4)n2)c1 shows inhibition at 0.1 µM at minimum 40%?
Result: y

Query: Would you say COc1ccc(/C=C\c2cc(OC)c(OC)c(OC)c2)cc1O shows inhibition at 0.1 µM at minimum 40%?
Result: y

Query: Would you say COc1cc(Nc2ncccc2-c2n[nH]c(Nc3ccccc3)n2)cc(OC)c1 shows inhibition at 0.1 µM at minimum 40%?
Result: n

Query: Would you say COc1cc(Oc2ncccc2-c2n[nH]c(Nc3ccc4c(c3)OCO4)n2)cc(OC)c1OC shows inhibition at 0.1 µM at minimum 40%?
Result: y

Query: Would you say COc1cc(Nc2ncccc2-c2nc(Nc3ccc4c(c3)OCCO4)n(C)n2)cc(OC)c1 shows inhibition at 0.1 µM at minimum 40%?
Result: n

Query: Would you say CN(C)c1cccc(Oc2ncccc2-c2n[nH]c(Nc3ccc4c(c3)OCO4)n2)c1 shows inhibition at 0.1 µM at minimum 40%?
Result: y

Query: Would you say COc1cccc(CNc2n[nH]c(-c3cccnc3Oc3cc(OC)cc(OC)c3)n2)c1 shows inhibition at 0.1 µM at minimum 40%?
Result: n

Query: Would you say COc1cc(OC)cc(Oc2ncccc2-c2n[nH]c(N(C)c3ccncc3)n2)c1 shows inhibition at 0.1 µM at minimum 40%?
Result: y

Query: Would you say COc1cc(OC)cc(Oc2ncccc2-c2n[nH]c(Nc3ccc(C#N)cc3)n2)c1 shows inhibition at 0.1 µM at minimum 40%?
Result: n

Query: Would you say COc1cc(Nc2ncccc2-c2n[nH]c(Nc3ccc4c(c3)OCCO4)n2)cc(OC)c1 shows inhibition at 0.1 µM at minimum 40%?
Result: y

Query: Would you say COc1cc(OC)cc(Oc2ncccc2-c2n[nH]c(NCc3ccc4c(c3)OCO4)n2)c1 shows inhibition at 0.1 µM at minimum 40%?
Result: n

Query: Would you say COc1cc(Nc2ncccc2-c2nnc(Nc3ccc4c(c3)OCCO4)n2C)cc(OC)c1 shows inhibition at 0.1 µM at minimum 40%?
Result: n

Entry source: ChEMBL document CHEMBL1141190
